Data provenance is PubChem BioAssay AID2060605.

tested on: 947758-054-R-J2-PDC spheroid growth, percent test/control; experiment: Anticancer human tumor 947758-054-R-J2-PDC patient-derived colon adenocarcinoma cell line growth inhibition [CLK]; conditions: second compound 3.16 µM; first compound 1 µM; spheroids with HUVEC and MSC; active means viability on the fitted dose curve at most 10% of control; inactive means the rest
Respond with a class label; see active, inactive

>>> qualitative_label("CC(=O)O[C@H]1C(=O)[C@@]2(C)[C@H]([C@H](OC(=O)c3ccccc3)[C@]3(O)C[C@H](OC(=O)[C@H](O)[C@@H](NC(=O)c4ccccc4)c4ccccc4)C(C)=C1C3(C)C)[C@]1(OC(C)=O)CO[C@@H]1C[C@@H]2O + CN1CCN(c2cc(C(=O)Nc3cc4cc(-c5cnn(C)c5)ccc4cn3)ccn2)CC1")
"active"
>>> qualitative_label("Nc1ccccc1NC(=O)c1ccc(CNC(=O)OCc2cccnc2)cc1 + CNC(=O)c1ccc(Nc2nc(OC3CCCC3)c3c(-c4ccc5nc(C)oc5c4)c[nH]c3n2)c(OC)c1")
"inactive"
>>> qualitative_label("COc1cccc2c1C(=O)c1c(O)c3c(c(O)c1C2=O)CC(O)(C(=O)CO)CC3OC1CC(N)C(O)C(C)O1 (stereo not given) + CN1CCN(c2cc(C(=O)Nc3cc4cc(-c5cnn(C)c5)ccc4cn3)ccn2)CC1")
"active"
>>> qualitative_label("O=c1[nH]cc(F)c(=O)[nH]1 + CN1CCN(c2cc(C(=O)Nc3cc4cc(-c5cnn(C)c5)ccc4cn3)ccn2)CC1")
"active"

Attention now turns to another entry.
(Q) // return assay outcome for CCCS(=O)(=O)Nc1ccc(F)c(C(=O)c2c[nH]c3ncc(-c4ccc(Cl)cc4)cc23)c1F + CN1CCN(c2cc(C(=O)Nc3cc4cc(-c5cnn(C)c5)ccc4cn3)ccn2)CC1
(A) active

* * *

test system: 947758-054-R-J2-PDC spheroid growth, percent test/control; assay: Anticancer human tumor 947758-054-R-J2-PDC cell line growth inhibition [CLK]; conditions: curve of first compound; second compound 1 µM; spheroids with HUVEC and MSC;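 further: spheroids exposed to compounds for one week before readout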
pIC50: −log10 of the molar value.
measured-quantity: pIC50

Some solved entries appear below for comparison.
>>> result("CC(=O)O[C@H]1C(=O)[C@@]2(C)[C@H]([C@H](OC(=O)c3ccccc3)[C@]3(O)C[C@H](OC(=O)[C@H](O)[C@@H](NC(=O)c4ccccc4)c4ccccc4)C(C)=C1C3(C)C)[C@]1(OC(C)=O)CO[C@@H]1C[C@@H]2O + CNC(=O)c1ccc(Nc2nc(OC3CCCC3)c3c(-c4ccc5nc(C)oc5c4)c[nH]c3n2)c(OC)c1")
"< 5.00"
>>> result("CCCS(=O)(=O)Nc1ccc(F)c(C(=O)c2c[nH]c3ncc(-c4ccc(Cl)cc4)cc23)c1F + CN1CCN(c2cc(C(=O)Nc3cc4cc(-c5cnn(C)c5)ccc4cn3)ccn2)CC1")
"> 7.50"
>>> result("C#Cc1c(F)ccc2cc(O)cc(-c3ncc4c(N5CC6CCC(C5)N6)nc(OCC56CCCN5CC(F)C6)nc4c3F)c12 (stereo not given) + CN1CCN(c2cc(C(=O)Nc3cc4cc(-c5cnn(C)c5)ccc4cn3)ccn2)CC1")
"> 7.50"
>>> result("Nc1ccn(C2OC(CO)C(O)C2(F)F)c(=O)n1 (stereo not given) + CN1CCN(c2cc(C(=O)Nc3cc4cc(-c5cnn(C)c5)ccc4cn3)ccn2)CC1")
"> 7.50"

Next item in the queue.
(Q) Item COC1C=CCC(C)C(C)S(=O)(=O)NC(=O)c2ccc3c(c2)N(CC2CCC21)CC1(CCCc2cc(Cl)ccc21)CO3 (stereo not given) + CNC(=O)c1ccc(Nc2nc(OC3CCCC3)c3c(-c4ccc5nc(C)oc5c4)c[nH]c3n2)c(OC)c1 with 947758-054-R-J2-PDC spheroid growth, percent test/control - pIC50?
(A) > 7.50
